Biological target: Glucose-dependent insulinotropic receptor (Homo sapiens) (UniProt Q8TDV5)
Sequence (Q8TDV5 whole entry): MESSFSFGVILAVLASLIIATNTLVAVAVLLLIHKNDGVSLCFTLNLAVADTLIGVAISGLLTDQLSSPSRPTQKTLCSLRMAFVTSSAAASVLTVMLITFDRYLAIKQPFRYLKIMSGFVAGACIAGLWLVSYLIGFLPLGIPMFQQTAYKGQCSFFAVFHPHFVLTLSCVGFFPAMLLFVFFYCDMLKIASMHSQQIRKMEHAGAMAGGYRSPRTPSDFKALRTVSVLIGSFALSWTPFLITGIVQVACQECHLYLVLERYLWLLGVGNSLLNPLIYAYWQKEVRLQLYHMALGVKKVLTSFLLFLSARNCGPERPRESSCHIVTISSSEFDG
Assay: Agonist activity at human GPR119 expressed in HEK293 cells assessed as increase in cAMP stimulation measured after 60 mins by TR-FRET assay relative to oleoylethanolamide
Format: functional, cell-based
Catalogue of compounds with associated %max

compound	reading_unit	%max
CC(C)(C)OC(=O)N1CC2CC(Nc3ncnc(Nc4ccc(S(C)(=O)=O)cc4)c3[N+](=O)[O-])C1C2 (stereo in doubt; 27h)	%	21.6
CC(C)(C)OC(=O)N1CC2CCC1CC2Nc1ncnc(Nc2ccc(S(C)(=O)=O)cc2F)c1[N+](=O)[O-] (stereo in doubt; 27q)	%	104
CCCCCCCC/C=C\CCCCCCCC(=O)NCCO	%	100
CC(C)(C)OC(=O)N1CC2CCC1CC2Nc1ncnc(Nc2ccc(S(C)(=O)=O)cc2F)c1[N+](=O)[O-] (stereo in doubt; 27s)	%	63.2
CC(C)(C)OC(=O)N1CC2CC1CC2Oc1ncnc(Nc2ccc(S(C)(=O)=O)cc2)c1[N+](=O)[O-] (configuration not stated)	%	101
CC(C)(C)OC(=O)N1C[C@@H]2CC[C@@H]1C[C@@H]2Oc1ncnc(Nc2ccc(S(C)(=O)=O)cc2F)c1[N+](=O)[O-] (relative stereo)	%	112
CC(C)(C)OC(=O)N1CC2CCC1CC2Oc1ncnc(Nc2ccc(S(C)(=O)=O)cc2)c1[N+](=O)[O-] (stereo in doubt; 27p)	%	44.7
